- target system: full-length ATR (Homo sapiens (Human), UniProt Q13535)
- Sequence (Q13535 whole entry): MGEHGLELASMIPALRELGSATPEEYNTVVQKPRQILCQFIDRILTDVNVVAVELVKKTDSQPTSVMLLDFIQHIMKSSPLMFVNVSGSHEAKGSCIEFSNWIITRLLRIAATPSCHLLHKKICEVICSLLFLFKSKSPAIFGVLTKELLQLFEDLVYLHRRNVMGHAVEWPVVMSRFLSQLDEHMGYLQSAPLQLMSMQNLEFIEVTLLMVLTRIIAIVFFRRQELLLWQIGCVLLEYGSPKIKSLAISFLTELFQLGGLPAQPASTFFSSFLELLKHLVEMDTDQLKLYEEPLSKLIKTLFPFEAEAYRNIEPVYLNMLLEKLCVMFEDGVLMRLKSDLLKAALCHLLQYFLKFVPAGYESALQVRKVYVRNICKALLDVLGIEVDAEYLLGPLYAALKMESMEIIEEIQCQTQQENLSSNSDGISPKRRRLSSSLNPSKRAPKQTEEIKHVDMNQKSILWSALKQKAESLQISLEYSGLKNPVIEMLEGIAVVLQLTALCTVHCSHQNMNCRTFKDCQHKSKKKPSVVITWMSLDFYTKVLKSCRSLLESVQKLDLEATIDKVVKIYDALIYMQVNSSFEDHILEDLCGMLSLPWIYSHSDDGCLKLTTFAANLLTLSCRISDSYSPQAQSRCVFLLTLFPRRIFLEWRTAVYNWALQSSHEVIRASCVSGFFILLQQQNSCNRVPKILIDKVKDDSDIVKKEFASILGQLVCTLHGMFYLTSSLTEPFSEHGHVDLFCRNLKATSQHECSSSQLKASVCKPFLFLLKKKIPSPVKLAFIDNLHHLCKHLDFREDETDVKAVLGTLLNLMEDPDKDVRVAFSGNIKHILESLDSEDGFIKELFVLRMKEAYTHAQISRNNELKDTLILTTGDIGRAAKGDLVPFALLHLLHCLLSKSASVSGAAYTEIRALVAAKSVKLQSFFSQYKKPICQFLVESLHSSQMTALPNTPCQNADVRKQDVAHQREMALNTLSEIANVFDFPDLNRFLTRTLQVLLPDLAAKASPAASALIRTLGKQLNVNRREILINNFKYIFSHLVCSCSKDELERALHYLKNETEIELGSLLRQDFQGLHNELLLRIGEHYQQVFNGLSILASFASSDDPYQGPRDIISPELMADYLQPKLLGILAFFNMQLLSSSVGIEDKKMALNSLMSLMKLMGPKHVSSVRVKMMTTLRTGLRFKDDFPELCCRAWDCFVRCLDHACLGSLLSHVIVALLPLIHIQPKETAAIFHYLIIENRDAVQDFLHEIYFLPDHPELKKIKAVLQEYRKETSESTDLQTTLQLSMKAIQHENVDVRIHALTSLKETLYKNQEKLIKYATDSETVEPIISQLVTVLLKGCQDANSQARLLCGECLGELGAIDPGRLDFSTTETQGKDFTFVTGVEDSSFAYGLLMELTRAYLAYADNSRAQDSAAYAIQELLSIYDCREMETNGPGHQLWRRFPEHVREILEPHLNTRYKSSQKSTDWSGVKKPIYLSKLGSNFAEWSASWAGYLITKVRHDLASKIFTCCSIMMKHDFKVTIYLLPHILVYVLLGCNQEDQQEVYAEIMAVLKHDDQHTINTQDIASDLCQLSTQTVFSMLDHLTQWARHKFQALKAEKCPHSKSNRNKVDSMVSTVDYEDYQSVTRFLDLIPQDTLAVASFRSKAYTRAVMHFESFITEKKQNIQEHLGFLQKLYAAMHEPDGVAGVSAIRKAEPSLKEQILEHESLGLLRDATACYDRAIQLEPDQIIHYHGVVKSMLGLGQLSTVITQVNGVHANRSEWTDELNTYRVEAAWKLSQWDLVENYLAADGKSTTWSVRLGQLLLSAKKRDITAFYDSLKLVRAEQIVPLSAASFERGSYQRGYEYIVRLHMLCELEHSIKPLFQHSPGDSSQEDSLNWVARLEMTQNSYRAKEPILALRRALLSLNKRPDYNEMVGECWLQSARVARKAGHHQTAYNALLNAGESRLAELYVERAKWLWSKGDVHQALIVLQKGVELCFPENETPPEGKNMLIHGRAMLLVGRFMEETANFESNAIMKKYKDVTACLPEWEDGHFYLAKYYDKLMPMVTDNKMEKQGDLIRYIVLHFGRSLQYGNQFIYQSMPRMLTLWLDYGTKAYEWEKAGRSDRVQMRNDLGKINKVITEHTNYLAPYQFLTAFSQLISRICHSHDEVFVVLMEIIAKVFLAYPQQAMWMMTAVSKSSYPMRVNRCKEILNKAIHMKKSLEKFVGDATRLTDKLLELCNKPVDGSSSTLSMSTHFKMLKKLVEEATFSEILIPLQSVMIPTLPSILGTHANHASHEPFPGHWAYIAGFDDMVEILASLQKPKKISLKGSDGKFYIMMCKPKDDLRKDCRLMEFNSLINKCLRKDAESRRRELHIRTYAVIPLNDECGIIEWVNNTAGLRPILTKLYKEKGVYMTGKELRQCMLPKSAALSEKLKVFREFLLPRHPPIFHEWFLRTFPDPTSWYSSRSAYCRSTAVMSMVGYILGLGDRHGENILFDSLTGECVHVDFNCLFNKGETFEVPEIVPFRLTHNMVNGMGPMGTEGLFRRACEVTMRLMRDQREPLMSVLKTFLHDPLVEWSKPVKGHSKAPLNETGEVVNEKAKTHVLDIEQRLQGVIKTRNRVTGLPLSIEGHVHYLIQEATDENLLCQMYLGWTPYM
- test details: ATR Inhibition Assay (radioactive-phosphate incorporation)
- Assay type: biochemical
- condition context: read-out: ATR Ki
Assignment: determine reported Ki for the given molecules.

Sample answers from the record:
{"molecule": "COCc1ccccc1-c1cnc(N)c(-c2nnc(-c3ccccc3)o2)n1 [IA-125]", "target system": "full-length ATR (Homo sapiens (Human), UniProt Q13535)", "property name": "Ki", "result": "100 to 5000 nM"}
{"molecule": "COc1ccccc1NC(=O)c1nc(-c2cccnc2)cnc1N [Compound I-106]", "target system": "full-length ATR (Homo sapiens (Human), UniProt Q13535)", "property name": "Ki", "result": "10 to 100 nM"}
{"molecule": "CN(C)c1ccccc1-c1cnc(N)c(-c2nnc(-c3ccccc3)o2)n1 [IA-94]", "target system": "full-length ATR (Homo sapiens (Human), UniProt Q13535)", "property name": "Ki", "result": "100 to 5000 nM"}
{"molecule": "CC(C)S(=O)(=O)c1ccc(-c2cnc(N)c(-c3nnc(-c4ccc(CNC5COC5)cc4F)o3)n2)cc1 [IA-319]", "target system": "full-length ATR (Homo sapiens (Human), UniProt Q13535)", "property name": "Ki", "result": "≤ 10 nM"}

// each listed molecule needs a value for Ki
1. CC(C)S(=O)(=O)c1ccc(-c2cnc(N)c(-c3nnc(-c4ccc(C5CCCN5)cc4)o3)n2)cc1 (centres unmarked) [IA-102]
2. CNCc1ccc(-c2nnc(-c3nc(-c4ccc(S(=O)(=O)C5CCOCC5)cc4)cnc3N)o2)c(F)c1 [IA-344]
3. Cc1ccc2nc(-c3nc(-c4ccc(C(=O)N5CCC(N(C)C)CC5)cc4)cnc3N)[nH]c2c1 [Compound I-148]
4. Nc1ncc(-c2cccc(C(=O)O)c2)nc1C(=O)Nc1ccccc1 [Compound I-8]
5. Nc1ncc(-c2ccccc2C(F)(F)F)nc1-c1nnc(-c2ccccc2)o1 [IA-174]
6. Nc1ncc(-c2ccc(C(=O)N3CCCNCC3)cc2C(F)(F)F)nc1-c1nnc(-c2ccccc2)o1 [IA-39]
7. COc1ccc(-c2nnc(-c3nc(-c4ccc(C(=O)N(C)C)cc4)cnc3N)o2)cc1 [IA-157]

≤ 10 nM
≤ 10 nM
10 to 100 nM
100 to 5000 nM
100 to 5000 nM
≤ 10 nM
10 to 100 nM

Each molecule below has a recorded value; state its Ki.
1. Cc1ccc2nc(-c3nc(-c4ccc(C(=O)N5CCN(C)CC5)cc4)cnc3N)[nH]c2c1 [Compound I-150]
2. CC(C)S(=O)(=O)c1ccc(-c2cnc(N)c(-c3nnc(-c4ccc(CN[C@H](C)CO)cc4F)o3)n2)cc1 [IA-333]
3. Nc1ncc(-c2cccnc2)nc1C(=O)Nc1ccccc1 [Compound I-85]
4. CSc1ccccc1-c1cnc(N)c(-c2nnc(-c3ccccc3)o2)n1 [IA-230]
5. COC1CN(C(=O)c2cccc(-c3cnc(N)c(C(=O)Nc4ccccc4)n3)c2)C1 [Compound I-60]
6. CN(C)C(=O)c1ccc(-c2cnc(N)c(-c3nnc(NC4CCNCC4)o3)n2)cc1 [IA-54]

1: 10 to 100 nM; 2: ≤ 10 nM; 3: 10 to 100 nM; 4: 10 to 100 nM; 5: 100 to 5000 nM; 6: 100 to 5000 nM
